IC50 reference
assayedSystem: Recombinant STAT3 protein (STAT3(G127-I722)) (Homo sapiens, UniProt P40763)
Construct: Recombinant STAT3 protein (STAT3(G127-I722))
Sequence (P40763 127-722): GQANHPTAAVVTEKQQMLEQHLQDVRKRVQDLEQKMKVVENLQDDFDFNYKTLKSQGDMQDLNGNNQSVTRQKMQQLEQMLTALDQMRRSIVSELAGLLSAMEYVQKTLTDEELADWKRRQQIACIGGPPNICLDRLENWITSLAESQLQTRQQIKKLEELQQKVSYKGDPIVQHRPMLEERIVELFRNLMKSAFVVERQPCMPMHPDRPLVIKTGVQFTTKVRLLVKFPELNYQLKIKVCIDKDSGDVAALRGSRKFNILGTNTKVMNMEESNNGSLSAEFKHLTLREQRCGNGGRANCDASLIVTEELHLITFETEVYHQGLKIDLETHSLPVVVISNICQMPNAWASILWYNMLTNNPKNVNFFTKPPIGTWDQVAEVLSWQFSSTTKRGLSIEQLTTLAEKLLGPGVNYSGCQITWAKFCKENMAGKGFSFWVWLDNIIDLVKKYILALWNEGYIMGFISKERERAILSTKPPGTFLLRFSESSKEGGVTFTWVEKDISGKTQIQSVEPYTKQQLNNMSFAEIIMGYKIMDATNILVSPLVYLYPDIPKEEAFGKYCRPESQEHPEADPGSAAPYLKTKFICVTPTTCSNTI
assaySummary: STAT3 Fluorescence Polarization (FP) Assay
recordedConditions: STAT3(G127-I722) 25 nM, probe 5-FAM-GpYLPQTV-NH2 2 nM, 45-minute incubation

These recorded examples may help you get a feel for the data.
# molecule, IC50
records = [
    ("N#C[C@H]1CN(C(=O)[C@@H]2CC[C@@H]3CCN(CC(F)F)C[C@H](NC(=O)c4ccc5ccc(C(F)(F)P(=O)(O)O)cc5c4)C(=O)N32)C[C@@H]1c1cc(F)cc(F)c1 (relative stereo) [Compound 246]", "1 to 10 µM"),
    ("Cc1ccc2onc(C(=O)N3CC[C@H]4CC[C@@H](C(=O)N5C[C@@H](c6ccn(C)c(=O)c6)CC56CC6)N4C(=O)[C@@H](NC(=O)c4ccc5ccc([C@@H](F)P(=O)(O)O)cc5c4)C3)c2c1 [Compound 380]", "> 10 µM"),
    ("CC(=O)N1CC[C@H]2CC[C@@H](C(=O)N3C[C@@H](C#N)[C@H](c4ccccc4)C3)N2C(=O)[C@@H](NC(=O)c2cc3cc(C(F)(F)P(=O)(O)O)ccc3[nH]2)C1 (single isomer, unassigned) [Compound 139]", "1 to 10 µM"),
]

Now for a further molecule.
# IC50 measured on Recombinant STAT3 protein (STAT3(G127-I722)) (Homo sapiens, UniProt P40763) for item CCN1CC[C@H](NC(=O)c2ccc3ccc(C(F)(F)P(=O)(O)O)cc3c2)C(=O)N2[C@H](CC[C@H]2C(=O)N2C[C@H](c3ccccc3)[C@@H](C#N)C2)C1 (relative stereo) [Compound 227] = 1 to 10 µM

====

assayedSystem: Recombinant STAT3 protein (STAT3(G127-I722)) (Homo sapiens, UniProt P40763)
Construct: Recombinant STAT3 protein (STAT3(G127-I722))
assaySummary: STAT3 Fluorescence Polarization (FP) Assay
recordedConditions: STAT3(G127-I722) 25 nM, probe 5-FAM-GpYLPQTV-NH2 2 nM, 45-minute incubation
endpoint: IC50

These recorded examples may help you get a feel for the data.
# compound, result
records = [
    ("CNC(=O)C[C@@H](Cc1ccc(OC)cc1)NC(=O)[C@@H]1CC[C@@H]2CCN(C(=O)c3n[nH]c4ccc(C)cc34)C[C@H](NC(=O)c3ccc4ccc(C(F)(F)P(=O)(O)O)cc4c3)C(=O)N21", "1000 to 10000 nM"),
    ("N#C[C@H]1CN(C(=O)[C@@H]2CC[C@@H]3CN(C(c4ccccc4)c4ccccc4)CC[C@H](NC(=O)c4ccc5ccc(C(F)(F)P(=O)(O)O)cc5c4)C(=O)N32)C[C@@H]1c1ccccc1 (relative stereo)", "1000 to 10000 nM"),
    ("CC(=O)N1C[C@H](NC(=O)[C@@H]2CC[C@@H]3CCN(Cc4ncccn4)C[C@H](NC(=O)c4cc5cc(C(F)P(=O)(O)O)ccc5s4)C(=O)N32)[C@@H](F)C1 (some centres unmarked)", "100 to 1000 nM"),
    ("CC(=O)N1CC[C@H]2CC[C@@H](C(=O)N(C)c3ccc4nnccc4c3)N2C(=O)[C@@H](NC(=O)c2ccc3cnc(C(F)(F)P(=O)(O)O)cc3c2)C1", "> 10000 nM"),
]

# compound O=C(N[C@H]1CCNC[C@H]2CC[C@@H](C(=O)N3CC(c4cccnc4)C3)N2C1=O)c1cc2cc(C(F)(F)P(=O)(O)O)ccc2s1 ; its IC50 = 1000 to 10000 nM
